- experiment.description: Compound was tested for its maximum lipophilicity.
- Type: physicochemical
- measurement.conditions: octanol/water
Think of 0.9 as a floor: if Log Dmax stands on it or above, it is y; beneath it, n.

[[record]]
compound = "CCOC(=O)[C@H](CCc1ccccc1)N[C@@H](C)C(=O)N1CCC[C@H]1C(=O)O"
classification = "n"

[[record]]
compound = "NCCCC[C@H](N[C@@H](CCc1ccccc1)C(=O)O)C(=O)N1CCC[C@H]1C(=O)O [LISINOPRIL ANHYDROUS]"
classification = "n"

[[record]]
compound = "CCOC(=O)[C@H](CCc1ccccc1)N[C@@H](C)C(=O)N1CC2(C[C@H]1C(=O)O)SCCS2"
classification = "n"

[[record]]
compound = "C[C@H](N[C@@H](CCc1ccccc1)C(=O)O)C(=O)N1N=C(C(C)(C)C)S[C@H]1C(=O)O"
classification = "y"

[[record]]
compound = "CCOC(=O)[C@H](CCc1ccccc1)N[C@@H](C)C(=O)N1N=C(C(C)(C)C)S[C@H]1C(=O)O"
classification = "y"

[[record]]
compound = "C[C@H](N[C@@H](CCc1ccccc1)C(=O)O)C(=O)N1CCC[C@H]1C(=O)O [ENALAPRILAT ANHYDROUS]"
classification = "n"


====

Recorded measurements of pKa, one per entry
- experiment.description: The acid dissociation constant, pKa was determined.'a' represents value of C-terminus carboxylic acid.
- Format: physicochemical
quantity: pKa

[[record]]
compound = "CCOC(=O)[C@H](CCc1ccccc1)N[C@@H](C)C(=O)N1CC2(C[C@H]1C(=O)O)SCCS2"
quantity = "pKa"
val = 5.5

[[record]]
compound = "C[C@H](N[C@@H](CCc1ccccc1)C(=O)O)C(=O)N1N=C(C(C)(C)C)S[C@H]1C(=O)O"
quantity = "pKa"
val = 8

[[record]]
compound = "CCOC(=O)[C@H](CCc1ccccc1)N[C@@H](C)C(=O)N1N=C(C(C)(C)C)S[C@H]1C(=O)O"
quantity = "pKa"
val = 5.4

[[record]]
compound = "C[C@H](N[C@@H](CCc1ccccc1)C(=O)O)C(=O)N1CCC[C@H]1C(=O)O [ENALAPRILAT ANHYDROUS]"
quantity = "pKa"
val = 8.02


====

- tested.on: Angiotensin-converting enzyme (Rattus norvegicus)
- Sequence (whole entry): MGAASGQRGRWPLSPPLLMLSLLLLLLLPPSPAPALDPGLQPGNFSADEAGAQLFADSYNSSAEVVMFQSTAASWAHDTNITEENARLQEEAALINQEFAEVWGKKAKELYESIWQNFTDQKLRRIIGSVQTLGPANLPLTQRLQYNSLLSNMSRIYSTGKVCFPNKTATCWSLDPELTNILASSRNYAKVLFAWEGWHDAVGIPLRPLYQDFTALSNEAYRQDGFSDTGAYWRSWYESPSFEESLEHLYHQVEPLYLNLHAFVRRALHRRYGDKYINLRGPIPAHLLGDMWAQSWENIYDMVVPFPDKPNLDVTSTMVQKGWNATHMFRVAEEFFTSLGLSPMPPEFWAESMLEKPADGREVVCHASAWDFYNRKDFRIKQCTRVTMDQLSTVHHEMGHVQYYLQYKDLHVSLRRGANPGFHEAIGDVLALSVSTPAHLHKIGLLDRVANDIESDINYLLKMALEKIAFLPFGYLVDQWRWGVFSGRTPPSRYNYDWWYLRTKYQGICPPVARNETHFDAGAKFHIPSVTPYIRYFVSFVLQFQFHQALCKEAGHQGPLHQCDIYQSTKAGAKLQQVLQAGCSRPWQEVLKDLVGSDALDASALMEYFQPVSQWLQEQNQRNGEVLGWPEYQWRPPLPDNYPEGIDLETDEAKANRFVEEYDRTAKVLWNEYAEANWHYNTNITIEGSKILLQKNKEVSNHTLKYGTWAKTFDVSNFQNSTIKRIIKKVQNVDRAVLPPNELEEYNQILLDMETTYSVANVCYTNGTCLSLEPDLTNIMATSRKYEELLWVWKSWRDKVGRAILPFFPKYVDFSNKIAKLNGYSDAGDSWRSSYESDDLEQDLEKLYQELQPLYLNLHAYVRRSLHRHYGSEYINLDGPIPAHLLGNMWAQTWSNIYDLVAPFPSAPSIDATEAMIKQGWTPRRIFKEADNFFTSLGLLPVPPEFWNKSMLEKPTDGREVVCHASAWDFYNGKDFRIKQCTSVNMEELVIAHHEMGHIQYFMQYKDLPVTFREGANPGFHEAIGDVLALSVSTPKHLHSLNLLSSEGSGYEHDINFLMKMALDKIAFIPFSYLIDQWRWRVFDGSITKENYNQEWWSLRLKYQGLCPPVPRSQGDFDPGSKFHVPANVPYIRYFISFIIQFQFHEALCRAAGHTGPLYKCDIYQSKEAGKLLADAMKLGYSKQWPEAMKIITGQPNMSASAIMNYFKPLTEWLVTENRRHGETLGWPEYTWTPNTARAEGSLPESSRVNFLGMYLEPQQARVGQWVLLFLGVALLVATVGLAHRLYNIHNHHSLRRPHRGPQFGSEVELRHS
- experiment.description: Relative inhibitory activity against angiotensin I converting enzyme
Values of Relative activity greater than or equal to 2 map to MET; values below map to NOT MET.

[[record]]
compound = "O=C(O)C1SC(C23CC4CC(CC(C4)C2)C3)=NN1C(=O)CCS (stereo not drawn)"
classification = "NOT MET"

[[record]]
compound = "O=C(O)C1SC(C2CCCCC2)=NN1C(=O)CCS (stereo not drawn)"
classification = "MET"

[[record]]
compound = "COc1ccc(C2=NN(C(=O)CCS)C(C(=O)O)S2)cc1 (stereo not drawn)"
classification = "NOT MET"

[[record]]
compound = "O=C(O)C1SC(c2ccccc2)=NN1C(=O)CCS (stereo not drawn)"
classification = "NOT MET"

[[record]]
compound = "O=C(O)C1SC(c2ccc(C(F)(F)F)cc2)=NN1C(=O)CCS (stereo not drawn)"
classification = "NOT MET"

[[record]]
compound = "CC(C)(C)C1=NN(C(=O)CCS)C(C(=O)O)S1 (stereo not drawn)"
classification = "MET"

[[record]]
compound = "O=C(O)C1SC(c2ccco2)=NN1C(=O)CCS (stereo not drawn)"
classification = "NOT MET"

[[record]]
compound = "CC1=NN(C(=O)CCS)C(C(=O)O)S1 (stereo not drawn)"
classification = "MET"


====

- experiment.description: The acid dissociation constant, pKa was determined. a'' represents value of C-terminus carboxylic acid.
- Type: physicochemical
quantity: pKa

[[record]]
compound = "NCCCC[C@H](N[C@@H](CCc1ccccc1)C(=O)O)C(=O)N1CCC[C@H]1C(=O)O [LISINOPRIL ANHYDROUS]"
val = 11.1


====

- experiment.description: The acid dissociation constant, pKa was determined. 'a' represents value of C-terminus carboxylic acid.
- Assay type: physicochemical
quantity: pKa

[[record]]
record_smiles = "CCOC(=O)[C@H](CCc1ccccc1)N[C@@H](C)C(=O)N1CCC[C@H]1C(=O)O"
val = 5.49

